# target: T1, recombinant human CD3 epsilon/gamma heterodimer (human, UniProt P07766 23-126; P09693 23-116)
# T1 construct: Recombinant protein in solution (200-50 nM) in the Octet assay; also called hCD3 E/G
# T1 sequence (P07766 23-126, chain 1 of 2): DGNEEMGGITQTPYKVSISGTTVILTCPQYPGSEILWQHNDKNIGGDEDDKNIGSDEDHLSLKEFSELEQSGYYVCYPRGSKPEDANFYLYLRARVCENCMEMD
# T1 sequence (P09693 23-116, chain 2 of 2): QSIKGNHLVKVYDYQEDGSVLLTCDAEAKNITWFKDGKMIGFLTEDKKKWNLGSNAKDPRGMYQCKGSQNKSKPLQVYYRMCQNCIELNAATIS
# measurement_protocol: Octet BLI, mAb on FAB2G sensor, hCD3 E/G 200-50 nM; R^2 0.99
parameter: kon (M⁻¹ s⁻¹)
Numbers only here, please. The scale is M⁻¹ s⁻¹.

# kon of ABL-CD3-28 (antibody, V domains shown, Chimeric hybridoma mAb: human V, CH1, upper hinge; mouse middle hinge, CH2, CH3) VH: QVQLQQSGPGLVKPSQTLSLTCAISGDSVSSNSVAWNWIRQSPSRGLEWLGRTYYRSKWYNECAGSVKSRITINPDTSKNQFSLQLNSVTPEDTAIYYCARERKWELFLDYWGQGTLVTVSS VL: NFMLTQPHSVSESPGKTVTISCTRSSGSIASNYVQWYQQRPGSSPTTVIYEDNQRPSGVPDRFSGSIDSSSNSASLTISGLKTEDEADYYCQSFDSSNVVFGGGTKLTVL = 143000

Provenance of the data: patent US20260167721A1
